These data points were gathered from paper PMC8584173.

- Tested on: Glutathione reductase, mitochondrial (GSHR_HUMAN)
- protocol_details: LC–MS proteome analysis, GSHR
- Assay type: cell-based, Homo sapiens
- run_conditions: SW620, 24 h, IC50 concentration, % of control
Provide the reported Protein Intensity, % (GSHR) of each item.
Answer format: numeric, % implied, no suffix.

Any idea what Protein Intensity, % (GSHR) was measured for O=[N+]([O-])c1cc([N+]2=C(Nc3ccccc3Br)[S][Cu-2]23[S]C(Nc2ccccc2Br)=[N+]3c2ccc(Cl)c([N+](=O)[O-])c2)ccc1Cl ? 69.1

Look up Protein Intensity, % (GSHR) for this compound: O=[N+]([O-])c1cc([N+]2=C(Nc3ccccc3F)[S][Cu-2]23[S]C(Nc2ccccc2F)=[N+]3c2ccc(Cl)c([N+](=O)[O-])c2)ccc1Cl 67.3

Fill blank: measured Protein Intensity, % (GSHR) of the compound O=[N+]([O-])c1cc([N+]2=C(Nc3ccc(I)cc3)[S][Cu-2]23[S]C(Nc2ccc(I)cc2)=[N+]3c2ccc(Cl)c([N+](=O)[O-])c2)ccc1Cl is ____. 79.3

I have this compound here, O=[N+]([O-])c1cc([N+]2=C(Nc3ccc(Br)cc3)[S][Cu-2]23[S]C(Nc2ccc(Br)cc2)=[N+]3c2ccc(Cl)c([N+](=O)[O-])c2)ccc1Cl , and I need its recorded Protein Intensity, % (GSHR). 79.2
